- System: 699152-130-R-J1-PDC complex spheroid viability
- Assay Name: Anticancer human tumor 699152-130-R-J1-PDC patient-derived pancreatic carcinoma cell line growth inhibition [POLQ]
- Details: curve of first compound; second compound 1 µM
pIC50: −log10 of the molar value.
Readout Type: pIC50

{"Compound": "CC1COCCN1c1cc(-c2ccnn2C)c2ccnc(-c3ccn[nH]3)c2n1 (stereo not drawn) + COC1C(OC(N)=O)C(O)C(Oc2ccc3c(O)c(NC(=O)c4ccc(O)c(CC=C(C)C)c4)c(=O)oc3c2C)OC1(C)C", "Value": "< 5.00"}
{"Compound": "COc1cccc(OCCCN)c1-c1cc(Nc2cnc(C#N)cn2)n[nH]1 + Cc1cccc(N(C)C(=O)C2C(O)CCN2c2nc(C)cc(C(F)(F)F)c2C#N)c1", "Value": "< 6.00"}
{"Compound": "COc1cc(C2c3cc4c(cc3C(OC3OC5COC(C)OC5C(O)C3O)C3COC(=O)C23)OCO4)cc(OC)c1O (stereo not drawn) + Cc1cccc(N(C)C(=O)C2C(O)CCN2c2nc(C)cc(C(F)(F)F)c2C#N)c1", "Value": "< 5.00"}

* * *

- Tested on: 699152-130-R-J1-PDC complex spheroid viability
- Assay Name: Anticancer human tumor 699152-130-R-J1-PDC cell line growth inhibition [POLQ];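 also: spheroids exposed to agents for 7 days before viability reading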;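 as to viability, T/C: percent of DMSO vehicle control viability so 100% = vehicle and 0% = no viable signal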
- Details: second compound 0.1 µM; first compound 0.316 µM; stronger effect = lower value
Readout Type: viability, T/C (%)

{"Molecule": "CNCc1ccc(-c2[nH]c3cc(F)cc4c3c2CCNC4=O)cc1 + COC1C(OC(N)=O)C(O)C(Oc2ccc3c(O)c(NC(=O)c4ccc(O)c(CC=C(C)C)c4)c(=O)oc3c2C)OC1(C)C", "Value": 92.9}
{"Molecule": "CCc1cc2c(N3CCc4c(cc(Cn5ccnc5)cc4-c4cn(C)nc4C(F)(F)F)C3=O)ccnc2c(OC)n1 + Nc1ccc(C#CCN(C(=O)Cc2ncc(C(F)(F)F)cc2C(F)(F)F)c2ccc(F)cc2)nn1", "Value": 89.4}
{"Molecule": "C=CCn1c(=O)c2cnc(Nc3ccc(N4CCN(C)CC4)cc3)nc2n1-c1cccc(C(C)(C)O)n1 + Cc1cccc(N(C)C(=O)C2C(O)CCN2c2nc(C)cc(C(F)(F)F)c2C#N)c1", "Value": 82.2}
{"Molecule": "C=CCn1c(=O)c2cnc(Nc3ccc(N4CCN(C)CC4)cc3)nc2n1-c1cccc(C(C)(C)O)n1 + COC1C(OC(N)=O)C(O)C(Oc2ccc3c(O)c(NC(=O)c4ccc(O)c(CC=C(C)C)c4)c(=O)oc3c2C)OC1(C)C", "Value": 98.7}

* * *

- Tested on: 699152-130-R-J1-PDC complex spheroid viability
- Assay Name: Anticancer human tumor 699152-130-R-J1-PDC cell line growth inhibition [POLQ];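 also: spheroids exposed to agents for 7 days before viability reading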;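 as to viability, T/C: percent of DMSO vehicle control viability so 100% = vehicle and 0% = no viable signal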
- Details: second compound 0.0316 µM; first compound 0.316 µM; stronger effect = lower value
In this section, each of the compounds is paired with its reported viability, T/C.

{"Compound": "O=C(Nc1ccc(O)c(NS(=O)(=O)c2ccc(F)cc2)c1)c1ccc(-c2ccccc2)cc1 + Cc1cccc(N(C)C(=O)C2C(O)CCN2c2nc(C)cc(C(F)(F)F)c2C#N)c1", "viability, T/C [%]": 95.9}
{"Compound": "COc1cccc2c1C(=O)c1c(O)c3c(c(O)c1C2=O)CC(O)(C(=O)CO)CC3OC1CC(N)C(O)C(C)O1 (stereo unspecified) + COC1C(OC(N)=O)C(O)C(Oc2ccc3c(O)c(NC(=O)c4ccc(O)c(CC=C(C)C)c4)c(=O)oc3c2C)OC1(C)C", "viability, T/C [%]": 43.7}
{"Compound": "CCc1cc2c(N3CCc4c(cc(Cn5ccnc5)cc4-c4cn(C)nc4C(F)(F)F)C3=O)cc(C)nc2c(OC)n1 + Nc1ccc(C#CCN(C(=O)Cc2ncc(C(F)(F)F)cc2C(F)(F)F)c2ccc(F)cc2)nn1", "viability, T/C [%]": 97.3}
{"Compound": "C#Cc1c(F)ccc2cc(O)cc(-c3ncc4c(N5CC6CCC(C5)N6)nc(OCC56CCCN5CC(F)C6)nc4c3F)c12 (stereo unspecified) + Nc1ccc(C#CCN(C(=O)Cc2ncc(C(F)(F)F)cc2C(F)(F)F)c2ccc(F)cc2)nn1", "viability, T/C [%]": 14.6}
{"Compound": "O=c1[nH]cc(F)c(=O)[nH]1 + Nc1ccc(C#CCN(C(=O)Cc2ncc(C(F)(F)F)cc2C(F)(F)F)c2ccc(F)cc2)nn1", "viability, T/C [%]": 99.3}
{"Compound": "C=CCn1c(=O)c2cnc(Nc3ccc(N4CCN(C)CC4)cc3)nc2n1-c1cccc(C(C)(C)O)n1 + Nc1ccc(C#CCN(C(=O)Cc2ncc(C(F)(F)F)cc2C(F)(F)F)c2ccc(F)cc2)nn1", "viability, T/C [%]": 96.1}
